test target: BCDIN3D (Homo sapiens)
assay overview: BCDIN3D IC50 RFMS (RapidFire) assay with mini-helix
Type: biochemical
applied conditions: mini-helix 0.2 μM and SAM 6 μM as substrates, 25 nM enzyme, 1 hr at 37° C.
reported metric: pIC50
Please express pIC50 as -log10 of the molar concentration.

Some solved entries appear below for comparison.
compound: COc1cc(Cl)cc(CNc2nc(NCCN)nc3c2cnn3C)c1
pIC50: 5.45
//
compound: Cn1ncc2c(NCc3cccc(C(F)(F)F)c3)nc(NCCN)nc21
pIC50: 5.11
//
compound: Cn1ncc2c(NCC3CCN(S(=O)(=O)c4ccccc4)CC3)nc(NCCN)nc21
pIC50: 5.02
//
compound: COc1cccc(-c2ccc(Nc3nc(NCCN)nc4c3cnn4C)cc2)c1
pIC50: 6.25
//
compound: COc1ccc(CNc2nc(NCCN)nc3c2cnn3C)cc1
pIC50: 5.16
//
compound: Cn1ncc2c(NCc3ccc(-c4ccccc4)cc3)nc(NCCN)nc21
pIC50: 5.66
//
compound: Cn1ncc2c(NC(C)(C)C)nc(NC[C@H](N)C3CCCCC3)nc21
pIC50: 6.10

pIC50 for BCDIN3D (Homo sapiens) with input [2H]C([2H])([2H])n1ncc2c(NC(C)(C)C)nc(NCC(N)c3ccccc3F)nc21 (stereo in doubt) [Compound 7.17] equals 6.01

###

test target: BCDIN3D (Homo sapiens)
Sequence (Q7Z5W3 1-292): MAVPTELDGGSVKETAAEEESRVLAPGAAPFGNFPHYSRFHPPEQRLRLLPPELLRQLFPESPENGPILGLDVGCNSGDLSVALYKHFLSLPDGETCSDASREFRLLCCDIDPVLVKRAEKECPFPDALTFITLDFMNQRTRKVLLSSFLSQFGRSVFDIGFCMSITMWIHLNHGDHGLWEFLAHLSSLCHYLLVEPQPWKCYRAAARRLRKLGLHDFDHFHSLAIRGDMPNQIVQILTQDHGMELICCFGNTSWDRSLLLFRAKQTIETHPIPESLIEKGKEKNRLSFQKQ
assay overview: BCDIN3D InCellPulse thermal stability assay in transfected A549 cells
Type: cell-based
applied conditions: transiently transfected A549 cells, heat shock 58° C. 15 min
Procedure: BCDIN3D InCellPulse™ Assay The thermal stability assay was performed with lipofectamine 3000 transiently transfected A549 using the plasmid pICP-ePL-BCDIN3 Da. This plasmid encodes for BCDIN3D N-terminally fused to a Prolabel (ePL), complementing a split β-Galactosidase Enzyme System InCELL Pulse Technology (InCELL Hunter Detection Kit, DiscoverX/Eurofins, cat: 96-0079L). […] Finally, the luminescence was measured with a Perkin Elmer EnVision with 0.2 s measurement time in luminescence mode.
Entries annotated with measured pIC50
Convention used: pIC50 is expressed as -log10 of the molar concentration.

Past entries and their recorded results:
molecule: CC[C@H](N)CNc1nc(NCc2ccc(C)c(Cl)c2)c2cnn(C)c2n1
pIC50: 5.35
--
molecule: CNc1nc(NCC(N)c2ccc(C#N)cc2)nc2c1cnn2C (stereo not shown)
pIC50: 4.95
--
molecule: Cn1ncc2c(NC3CC4(C3)CC(F)(F)C4)nc(NC[C@H](N)c3ccccc3)nc21
pIC50: 7.33
--
molecule: Cn1ncc2c(Nc3ccc(C(F)(F)F)nc3)nc(NCC3(N)CC3)nc21
pIC50: 5.61
--
molecule: Cn1ncc2c(NCC(C)(F)F)nc(NC[C@H](N)c3ccccc3)nc21
pIC50: 6.47
--
molecule: COCC(N)CNc1nc(NCc2ccc(C)c(Cl)c2)c2cnn(C)c2n1 (stereo not shown)
pIC50: 5.32
--
molecule: Cn1ncc2c(Nc3ccc(OC(F)(F)F)cc3)nc(NCC3(N)CCCC3)nc21
pIC50: 6.57
--
molecule: Cc1ccc(CNc2nc(NCC(N)c3ccccn3)nc3c2cnn3C)cc1Cl (stereo not shown)
pIC50: 6.03
--
molecule: COCC(C)(C)Nc1nc(NC[C@H](N)c2ccccc2)nc2c1cnn2C
pIC50: 5.73
--
molecule: Cn1ncc2c(NCc3ccc(F)c(Cl)c3)nc(NCC(N)c3ccccc3)nc21 (stereo not shown)
pIC50: 6.56

Record summary for Cn1ncc2c(Nc3ccc(Cl)c(F)c3)nc(NCC3(N)CC3)nc21 : reported pIC50 = 6.33

Recorded pIC50 (molecule CNc1nc(NC[C@H](N)c2ccccc2)nc2c1cnn2C ): 5.32

Measured pIC50 of Cn1ncc2c(Nc3ccc(Cl)c(Cl)c3)nc(NCC3(N)CC3)nc21 : 6.63

###

test target: BCDIN3D (Homo sapiens, UniProt Q7Z5W3)
assay overview: BCDIN3D InCellPulse thermal stability assay in transfected A549 cells
Format: cell-based
applied conditions: A549 cells transiently transfected with ePL-BCDIN3D, 1 h pre-incubation, heat shock 58° C. 15 min
Procedure: BCDIN3D InCellPulse™ Assay The thermal stability assay was performed with lipofectamine 3000 transiently transfected A549 using the plasmid pICP-ePL-BCDIN3 Da. This plasmid encodes for BCDIN3D N-terminally fused to a Prolabel (ePL), complementing a split β-Galactosidase Enzyme System InCELL Pulse Technology (InCELL Hunter Detection Kit, DiscoverX/Eurofins, cat: 96-0079L). […] Finally, the luminescence was measured with a Perkin Elmer EnVision with 0.2 s measurement time in luminescence mode.
Some molecules, each annotated with its measured log10 of IC50.
Give log10 of IC50, with IC50 taken in nM.

molecule: Cn1ncc2c(Nc3ccc(F)cc3)nc(NC[C@@H](N)c3ccccc3)nc21
test target: BCDIN3D (Homo sapiens, UniProt Q7Z5W3)
numeric result: 3.47

molecule: Cn1ncc2c(Nc3cccc(-c4ccccc4)c3)nc(NCCN)nc21
test target: BCDIN3D (Homo sapiens, UniProt Q7Z5W3)
numeric result: 3.23

// log10 of IC50 value for Cn1ncc2c(NC(C)(C)C)nc(NC[C@H](N)c3ccc(F)cc3)nc21 : 2.61

Documented log10 of IC50 of Cn1ncc2c(NC(C)(C)C)nc(NC[C@H](N)c3ccccc3F)nc21 : 3.33

// Cc1nn(C)c2nc(NCC(C)(C)N)nc(NCc3ccc(-c4ccccc4)cc3)c12 : log10 of IC50 value = 2.91

log10 of IC50 recorded for this molecule, COc1ccc(CNc2nc(NCC(C)(C)N)nc3c2c(C)nn3C)cc1Cl , is 3.58

// recorded log10 of IC50 for Cn1ncc2c(Nc3cccc(Oc4ccccc4)c3)nc(NCCN)nc21 : 3.18

Record COc1cccc(-c2ccc(Nc3nc(NCCN)nc4c3cnn4C)cc2)c1 . Reported log10 of IC50: 2.88

GET /value?item= CNc1nc(NC[C@@](C)(N)c2ccccc2)nc2c1cnn2C (single isomer, unassigned) &field=log10 of IC50 returns 4.03

Entry COc1ccc(CNc2nc(NCC(C)(C)N)nc3c2cnn3C)cc1Cl — recorded log10 of IC50 = 3.27

###

test target: BCDIN3D (Homo sapiens, UniProt Q7Z5W3)
assay overview: BCDIN3D IC50 RFMS (RapidFire) assay with mini-helix
Assay type: biochemical
applied conditions: mini-helix substrate 0.2 μM, SAM 6 μM, 25 nM enzyme
reported metric: IC50 (nM)
Answer with a number only, understood to be in nM.

Solved entries (count: 7):
compound: Cn1ncc2c(NCC3CCC3(F)F)nc(NC[C@H](N)c3ccccc3)nc21 (some centres unmarked) [Compound 4.106]
unit name: nM
numeric result: 149
//
compound: Cn1ncc2c(Nc3ccc(C(F)(F)F)cc3)nc(NCC3(N)COC3)nc21 [Compound 3.28]
unit name: nM
numeric result: 383
//
compound: Cn1ncc2c(NCC(F)(F)F)nc(NCC(N)c3ccccc3)nc21 (centres unmarked) [Compound 4.44]
unit name: nM
numeric result: 527
//
compound: Cn1ncc2c(Nc3ccc(Cl)c(Cl)c3)nc(NCC(C)(N)c3ccccc3)nc21 (centres unmarked) [Compound 4.13]
unit name: nM
numeric result: 86.6
//
compound: [2H]C([2H])([2H])n1ncc2c(Nc3ccc(C(F)(F)F)cc3)nc(NCC3(N)CCC3)nc21 [Compound 3.24]
unit name: nM
numeric result: 45
//
compound: Cn1ncc2c(Nc3cc(F)c(Cl)c(F)c3)nc(NCC3(N)CC3)nc21 [Compound 2.20]
unit name: nM
numeric result: 179
//
compound: C#Cc1cccc(C(N)CNc2nc(NC(C)(C)C)c3cnn(C)c3n2)c1 (centres unmarked) [Compound 5.05]
unit name: nM
numeric result: 51.8

Next up:
Entry Cn1ncc2c(Nc3cccc(F)c3F)nc(NCC3(N)CC3)nc21 [Compound 2.24] — recorded IC50 = 2460

###

Item-by-item account of IC50
test target: BCDIN3D (Homo sapiens)
assay overview: BCDIN3D IC50 RFMS (RapidFire) assay with mini-helix
Format: biochemical
applied conditions: mini-helix 0.2 μM and SAM 6 μM as substrates, 25 nM enzyme, 1 hr at 37° C.
Enter your answer as a number in µM; do not include the unit.

A selection of reference data follows.
compound: Cn1ncc2c(Nc3ccc(F)cc3)nc(NC[C@H](N)c3ccccc3)nc21
numeric result: 0.241
--
compound: COc1ccc(CCNc2nc(NCCN)nc3c2cnn3C)cn1
numeric result: 4.38
--
compound: COc1ccc(CNc2nc(NCCN)nc3c2c(C)nn3C)cc1Cl
numeric result: 2.9
--
compound: COc1ccc(Nc2nc(NCCN)nc3c2cnn3C)cc1Cl
numeric result: 1.15
--
compound: CC(C)Oc1nc(NCC(N)c2ccccc2)nc2c1cnn2C (stereo not drawn)
numeric result: 2.62

For this compound ( [2H]C([2H])([2H])n1ncc2c(NC(C)(C)C)nc(NCC(N)c3ccccc3F)nc21 (stereo in doubt) [Compound 7.16] ), measured IC50 is 0.069

Entry under test: Cn1ncc2c(NC(C)(C)C)nc(NC[C@@H](N)c3ccccc3F)nc21 . Its IC50 was 0.181

Short answer for Cn1ncc2c(Nc3ccc(C(F)(F)F)nc3)nc(NCC(C)(N)c3ccccc3)nc21 (single isomer, unassigned) : IC50 was 0.0381

Data point: Cn1ncc2c(Nc3ccc(F)cc3)nc(NC[C@@H](N)c3ccccc3)nc21 ; IC50 = 2.19

Per the records, this compound ( Cn1ncc2c(Nc3ccc(Oc4ccccc4)cc3)nc(NCCN)nc21 ) has IC50 equal to 0.975
